format: in vivo, human; conditions: human, plasma, po, 60 mg, Cmax, single oral 60 mg, severe renal impairment (eGFR < 30), n = 8; adjusted geometric mean (%CV)
PROPERTY: Cmax (ng/mL)
Give bare numbers, in ng/mL.

Cmax recorded for this compound, C[C@@H]1CCC[C@H](n2cnc(-c3cc(Cl)ccc3-n3cc(Cl)nn3)cc2=O)c2cc(ccn2)-c2c(cnn2C(F)F)NC1=O [milvexian, Milvexian] , is 462

====

assay type: in vivo, human; conditions: human, plasma, po, 60 mg, AUCt, single oral 60 mg, moderate renal impairment; adjusted geometric mean (%CV)
PROPERTY: AUC(0-t) (ng·h/mL)
One number for each entry, in ng·h/mL.

AUC(0-t) recorded for this compound, `C[C@@H]1CCC[C@H](n2cnc(-c3cc(Cl)ccc3-n3cc(Cl)nn3)cc2=O)c2cc(ccn2)-c2c(cnn2C(F)F)NC1=O` , is 5000

====

format: in vivo, human; conditions: human, plasma, po, 60 mg, Cmax, single oral 60 mg, normal renal function (eGFR ≥ 90), n = 8; adjusted geometric mean (%CV)
PROPERTY: Cmax (ng/mL)
Numbers only, in ng/mL.

Cmax recorded for this compound, C[C@@H]1CCC[C@H](n2cnc(-c3cc(Cl)ccc3-n3cc(Cl)nn3)cc2=O)c2cc(ccn2)-c2c(cnn2C(F)F)NC1=O [milvexian, Milvexian] , is 462
